Would you kindly list GFP response vs DMSO for each of these compounds?
Assay: modulators of MEP2-GFP levels in yeast, confirmation, S. cerevisiae, flow cytometry GFP, cherry picks (AID 2272);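 note: ratio of well signal to plate DMSO mean so 100% equals DMSO level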
Settings: S. cerevisiae MEP2-GFP strain, 3 h, at 10 µM, stronger effect = higher value
Numbers only here, please. The scale is %.

Data request: Give the measured GFP response vs DMSO of COc1ccc(C(=O)C2CCCN(C(=O)c3cccs3)C2)cc1F (stereo not given) .
Data returned: 99

Data request: How about this compound: "Cc1cc(S(=O)(=O)ON2C(=O)c3ccccc3C2=O)ccc1F"
Data returned: 108

Data request: How about this compound: "CCOC(=O)c1cnn(-c2cc(C)nc3c(-c4ccccc4)cnn23)c1N"
Data returned: 103

Data request: How about this compound: "Cc1cccc(NC(=O)c2ccc([N+](=O)[O-])o2)c1"
Data returned: 106

Data request: How about this compound: "O=C1/C(=C\c2ccc(O)c(O)c2)SC(=S)N1Cc1ccccc1"
Data returned: 141

Data request: How about this compound: CCS(=O)(=O)Nc1cccc(C2=NN(S(C)(=O)=O)C(c3ccccc3)C2)c1 (stereo not given)
Data returned: 120

Data request: How about this compound: "Cc1cccc(C)c1NC(=O)c1nc(S(=O)(=O)Cc2ccccc2)ncc1Cl"
Data returned: 101

Data request: How about this compound: "COc1ccc(N=Cc2nc(-c3ccccc3)oc2OC(=O)c2ccccc2)cc1"
Data returned: 94.4

Data request: How about this compound: CC1CN(c2nc3ccccn3c(=O)c2/C=C(\C#N)C(=O)N2CCOCC2)CC(C)O1 (stereo not given)
Data returned: 101

Data request: How about this compound: "C=CCNC(=O)/C(=C\c1ccc(OC)cc1)NC(=O)c1ccc([N+](=O)[O-])cc1"
Data returned: 96.6

###

Would you kindly list GFP response relative to DMSO for each of these compounds?
Experiment: LAP4-GFP expression modulators in yeast, confirmation, cell-based, cherry picks, flow cytometry, mother/daughter gates (AID 2271);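 note: ratio of sample to DMSO plate mean so 100% equals DMSO level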
Conditions: S. cerevisiae LAP4-GFP strain, 3 h, measured here: mother cell gate response, at 10 µM, stronger effect = higher value, 100 means same as DMSO control
Numbers only here, please. The scale is %.

Data request: Give the measured GFP response relative to DMSO of "CCOc1ccc(-c2noc(-c3ccncc3)n2)cc1OCC" .
Data returned: 106

Data request: How about this compound: "C/C(CCC12CC3CC(CC(C3)C1)C2)=N\NC(N)=S"
Data returned: 135

Data request: How about this compound: "O=C1c2cccc3cccc(c23)C(=O)N1c1cccnc1"
Data returned: 85.5

Data request: How about this compound: O=C1C2C3C=CC(CNS(=O)(=O)c4ccccc4[N+](=O)[O-])(O3)C2C(=O)N1c1ccccc1 (stereo unspecified)
Data returned: 98.2

Data request: How about this compound: "O=C(c1cc(-c2cccc(Cl)c2)on1)N1CCc2ccccc2C1"
Data returned: 95.2

Data request: How about this compound: "COc1ccc(C(=O)/C=C2/C(=O)Nc3ccccc32)cc1"
Data returned: 139

Data request: How about this compound: "COc1ccc(/C=N/Nc2nc(-c3cccnc3)nc3ccccc23)c(OC)c1"
Data returned: 98.3

Data request: How about this compound: "Cc1ccc(-c2nc3ccccn3c2NC(=O)c2ccco2)cc1"
Data returned: 98.4

Data request: How about this compound: "CCC(=O)Nc1ccc(NC(=O)c2cc3ccccc3o2)c(OC)c1"
Data returned: 96.2

Data request: How about this compound: CCOc1cc(-c2nc3cc(C)ccn3c2NCC2CCCO2)ccc1O (stereo unspecified)
Data returned: 87.3

Data request: How about this compound: "Cc1ccc(-c2noc(CCC(=O)Nc3ccccc3C)n2)cc1"
Data returned: 112
